// values below are reported % binding
Biological target: T1, streptavidin (UniProt P22629 37-163, limits assumed)
T1 construct: The same protein was used free (EMSA, Biacore, SBIA) and immobilized on a matrix or plate; also called immobilized streptavidin; Ultralink immobilized streptavidin plus
T1 sequence (P22629 37-163 limits assumed): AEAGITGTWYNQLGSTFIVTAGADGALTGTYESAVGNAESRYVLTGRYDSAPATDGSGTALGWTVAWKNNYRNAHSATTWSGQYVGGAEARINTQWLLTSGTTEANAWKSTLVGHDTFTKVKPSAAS
Assay: streptavidin column-binding assay: 35S-labeled DNA-tagged peptide bound to immobilized streptavidin and eluted with biotin
Where no end group is shown, it is not given here. The star is where a group is joined. puromycin = COc1ccc(C[C@H](N*)C(=O)N[C@H]2[C@@H](O)[C@H](n3cnc4c(N(C)C)ncnc43)O[C@@H]2CO)cc1; DNA oligonucleotide = not defined here
Write the number in % without appending the unit.

Example binders with recorded % binding:
Binder: MDEKTTGWRGGHVVEGLAGELEQLRARLEHHGAGQREPMMSGGCKLG-{puromycin-DNA oligonucleotide} (reading uncertain; also: 35S-methionine label, also called construct M1) [SB19 point mutated peptide M1]
% binding / %: 0.065
//
Binder: SB19 C-terminal truncation construct C3 (reading uncertain; also: 35S-methionine label) peptide: MDEKTTGWRGGHVVEGLAGELEQLRARLEHHPQGQREPLVQEVEDVDEGLVQMMSGGCKLG-{puromycin-DNA oligonucleotide}
% binding / %: 89

Here is another binder to look at.
Query string: What measured % binding goes with N2 (One member of the group m27; Assayed as a DNA-tagged peptide) peptide: MDEGLAGELEQLRARLEHHPQGQREPLVQEVEDVDEGLVQDLHGVVAGLLDPVEKLLTDWFKKFKNVSKDCKMTFYLEMYDWSGGCKLG ?
Result string: 30
